Target: human TLR8 (Homo sapiens)
Sequence (Q9NR97 27-1041): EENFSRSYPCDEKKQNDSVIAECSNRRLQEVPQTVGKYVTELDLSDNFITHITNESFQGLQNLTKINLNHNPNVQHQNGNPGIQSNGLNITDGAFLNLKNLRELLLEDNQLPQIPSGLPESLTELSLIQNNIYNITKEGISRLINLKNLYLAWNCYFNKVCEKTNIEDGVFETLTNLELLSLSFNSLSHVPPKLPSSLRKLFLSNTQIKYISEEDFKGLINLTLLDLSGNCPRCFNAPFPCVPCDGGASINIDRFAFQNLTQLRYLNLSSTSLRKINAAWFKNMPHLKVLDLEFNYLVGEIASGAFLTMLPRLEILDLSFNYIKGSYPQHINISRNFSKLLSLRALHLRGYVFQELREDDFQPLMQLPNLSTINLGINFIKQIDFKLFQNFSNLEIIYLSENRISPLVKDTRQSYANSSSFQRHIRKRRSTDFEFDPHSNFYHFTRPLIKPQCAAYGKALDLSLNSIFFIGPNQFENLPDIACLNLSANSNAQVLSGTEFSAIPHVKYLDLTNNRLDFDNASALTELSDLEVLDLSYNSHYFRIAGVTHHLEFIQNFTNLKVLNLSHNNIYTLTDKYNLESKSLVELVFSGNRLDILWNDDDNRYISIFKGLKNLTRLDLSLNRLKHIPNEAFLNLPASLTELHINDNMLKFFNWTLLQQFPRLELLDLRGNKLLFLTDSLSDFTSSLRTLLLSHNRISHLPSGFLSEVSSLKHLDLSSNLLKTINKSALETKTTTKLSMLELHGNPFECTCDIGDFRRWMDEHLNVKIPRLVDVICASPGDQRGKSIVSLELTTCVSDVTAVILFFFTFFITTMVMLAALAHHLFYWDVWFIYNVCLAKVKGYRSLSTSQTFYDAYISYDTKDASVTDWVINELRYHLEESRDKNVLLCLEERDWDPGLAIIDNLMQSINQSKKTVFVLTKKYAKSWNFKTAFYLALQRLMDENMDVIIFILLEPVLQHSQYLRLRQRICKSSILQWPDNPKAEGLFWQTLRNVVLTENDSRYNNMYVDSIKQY
Test: HEK293 NFKB reporter assay, human TLR8
Settings: HEK293 reporter cells expressing human TLR8; read-out: HEK293 hTLR8 EC50
PROPERTY_MEASURED: EC50

### Prompt Entry under review: CCCN(OCCCC(=O)OC(C)(C)C)C(=O)C1=Cc2ccc(S(=O)(=O)N(C)C)cc2N=C(N)C1 . Reported EC50?
### Response < 2.3 nM
